- TEST_TARGET: T1, Human LILRB2 stably expressed on EL4 cells (EL4/LILRB2) (human, UniProt Q8N423 22-597)
- T1 construct: also called EL4-LILRB2 cells; cell membrane human LILRB2
- T1 sequence (Q8N423 22-597 limits assumed): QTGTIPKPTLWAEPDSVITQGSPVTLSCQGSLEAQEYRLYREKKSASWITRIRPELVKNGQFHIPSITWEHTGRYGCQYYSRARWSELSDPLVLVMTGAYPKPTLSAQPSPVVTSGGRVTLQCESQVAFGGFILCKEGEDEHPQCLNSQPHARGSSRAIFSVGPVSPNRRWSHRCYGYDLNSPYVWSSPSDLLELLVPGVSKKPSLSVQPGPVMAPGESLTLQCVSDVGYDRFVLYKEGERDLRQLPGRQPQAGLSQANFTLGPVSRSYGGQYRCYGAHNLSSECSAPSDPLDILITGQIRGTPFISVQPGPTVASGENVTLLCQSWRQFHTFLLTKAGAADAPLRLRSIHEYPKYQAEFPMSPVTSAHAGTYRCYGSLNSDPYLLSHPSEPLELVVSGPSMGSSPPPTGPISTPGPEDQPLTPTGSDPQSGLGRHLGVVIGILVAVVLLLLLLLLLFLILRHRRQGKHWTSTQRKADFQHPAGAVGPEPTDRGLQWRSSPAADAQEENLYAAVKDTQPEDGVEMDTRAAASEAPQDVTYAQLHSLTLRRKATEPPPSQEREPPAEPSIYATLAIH
- ASSAY_DETAILS: FACS on EL4/LILRB2 cells
Readings of TOP MFI for the listed binders
Answer format: value, then unit.

# input Can you look up the measured TOP MFI of hu043.05 (antibody, V domains shown, Humanized human IgG4 antibody with S228P in the constant region; also called hu043VH7 / hu043VL2) VH: QVQLVQSGAEVKKPGASVKVSCKASGYTFTSYWMYWVRQAPGQGLEWIGHINPSSGYTKYNQKFKDRVTMTADTSTSTVYMELSSLRSEDTAVYYCARDPNWDNYWGQGTTVTVSS VL: DIQMTQSPSSLSASVGDRVTITCKASQDVSIAVAWYQQKPGKAPKLLIYSASYRYTGVPSRFSGSGSGTDFTFTISSLQPEDIATYYCQQHYSTPYTFGGGTKLEIK for me?
# output 45100 MFI

# input # lookup: TOP MFI of hu043.01 (antibody, V domains shown, Humanized human IgG4 antibody with S228P in the constant region; also called hu043VH6 / hu043VL4) VH: QVQLVQSGAEVKKPGASVKVSCKASGYTFTSYWMYWVRQAPGQGLEWIGHINPSSGYTKYNQKFKDRATLTADTSTSTAYMELSSLRSEDTAVYYCARDPNWDNYWGQGTTVTVSS VL: DIVMTQSPSSLSASVGDRVSITCKASQDVSIAVAWYQQKPGKAPKLLIYSASYRYTGVPDRFSGSGSGTDFTFTISSLQPEDIATYYCQQHYSTPYTFGGGTKLEIK
# output 45800 MFI

# input Data request, read-out TOP MFI, for 043c (antibody, V domains shown, Human IgG4 chimeric antibody with S228P mutation at the Fc region; also called chimeric antibody 043c; parental antibody 043c) VH: QVQLQQSGAELAKPGASVKLSCKASGYTFTSYWMYWVKQRPGQGLEWIGHINPSSGYTKYNQKFKDKATLTADKSSSTAYMQLSSLTYEDSAVYYCARDPNWDNYWGQGTTLTVSS VL: DIVMTQSHKFMSTSVGDRVSITCKASQDVSIAVAWYQQKPGQSPKLLIYSASYRYTGVPDRFTGSGSGTDFTFTISSVQAEDLAVYYCQQHYSTPYTFGGGTKLEIK
# output 45300 MFI

# input Need TOP MFI, item hu043.04 (antibody, V domains shown, Humanized human IgG4 antibody with S228P in the constant region; also called hu043VH6 / hu043VL2) VH: QVQLVQSGAEVKKPGASVKVSCKASGYTFTSYWMYWVRQAPGQGLEWIGHINPSSGYTKYNQKFKDRATLTADTSTSTAYMELSSLRSEDTAVYYCARDPNWDNYWGQGTTVTVSS VL: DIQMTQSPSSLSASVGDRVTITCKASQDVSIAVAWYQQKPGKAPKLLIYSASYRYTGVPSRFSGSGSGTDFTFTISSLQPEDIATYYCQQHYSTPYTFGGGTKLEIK
# output 45000 MFI

// provenance: patent US20260008847A1
